Assign solubility kinetic to each entry below.
- EXPERIMENTAL CONTEXT: buffer; pH 7.4; 200.0 µM

What measured solubility kinetic goes with CC(C(=O)c1c[nH]c2ccccc12)N1CCN(C(=O)c2ccco2)CC1 (centres undefined) ?
> 52.7 µg/mL

Now the same for `O=C(Oc1ccc(C(=S)N2CCOCC2)cc1)c1cccc([N+](=O)[O-])c1`
< 0.4 µg/mL

Now the same for `COc1ccc(NC(=S)NCCCN2CCCC2)cc1`
> 44 µg/mL

Now the same for `CC(C)(C)c1ccc(Oc2ncccc2NC(=O)c2cccs2)cc1`
< 0.4 µg/mL

====

- EXPERIMENTAL CONTEXT: buffer; pH 7.4; 200.0 µM
MEASUREMENT KIND: log10 of solubility kinetic (log10 of the value in µg/mL)
In our notation, the value equals log10 of solubility kinetic in µg/mL.

What measured log10 of solubility kinetic goes with CCCCCCC(O)(CCN1CCCCC1)c1ccccc1.Cl (centres undefined) ?
1.69

Now the same for `O=C(Cc1ccc(Cl)cc1)Nc1ccc(Cl)cn1`
0.49

Now the same for `O=C(NC(=S)Nc1ncccn1)c1ccccc1Br`
1.37

Now the same for `COc1cccc(Nc2nc(N)c([N+](=O)[O-])c(NCc3ccco3)n2)c1`
0.08

Now the same for `Cc1ccccc1CNC(=O)Nc1ccc(Cl)cc1`
-0.52

Now the same for `C=CCNC(=O)COC(=O)c1cccnc1Nc1ccccc1F`
1.25

Now the same for `O=C(CSC(=S)N1CCOCC1)c1cc2ccccc2oc1=O`
0.87

Now the same for `Cn1cnc([N+](=O)[O-])c1Sc1ccc(C(C)(C)C)cc1`
0.79

Now the same for CC1CCCN(C(=O)c2cc3ccccc3cc2O)C1 (centres undefined)
1.59

Now the same for `COc1ccc(OC)c(NC(=O)CCc2c[nH]c3ccccc23)c1`
1.04

Now the same for `COC(=O)c1sccc1NC(=O)Nc1ccc(C)cc1C`
0.82

Now the same for `Cc1ccc(OCc2nc3ccccc3n2C)cc1`
0.76

Now the same for `CC(C)(C)Nc1nc(Cl)nc(Nc2ccccc2)n1`
0.46

Now the same for `CSc1nsc(NC(=O)Nc2ccccc2)n1`
1.33

Now the same for Cc1cccc(N2CCN(Cc3cnc(Cl)s3)CC2C)c1 (centres undefined)
1.37

====

- EXPERIMENTAL CONTEXT: buffer; pH 7.4; 200.0 µM
Assign solubility kinetic to each entry below.

What measured solubility kinetic goes with Cc1ccc(C(=O)C2=C(O)C(=O)N(c3ncccn3)C2c2ccc(F)cc2)o1 (stereo unspecified) ?
> 56.9 µg/mL

Now the same for `O=[N+]([O-])c1ccccc1S(=O)(=O)Nc1cccnc1`
> 41.9 µg/mL

Now the same for CC1CCC(C(C)C)C(OCC(O)CNC(C)C)C1.Cl (stereo unspecified)
> 46.2 µg/mL

Now the same for CC1(C)C2CC=C(/C=N/NC(=O)C(N)=O)C1C2 (stereo unspecified)
> 35.3 µg/mL

Now the same for `S=c1[nH]ccn1-c1cccc(Cl)c1Cl`
> 36.8 µg/mL

Now the same for `CCOC(=O)Cn1cnc2scc(-c3ccccc3)c2c1=O`
> 47.2 µg/mL

====

- EXPERIMENTAL CONTEXT: buffer; pH 7.4; 200.0 µM
Assign solubility kinetic to each entry below.

What measured solubility kinetic goes with CC(Oc1ccc2c(-c3ccccc3)cc(=O)oc2c1)C(=O)N1CCOCC1 (stereo not drawn) ?
> 56.9 µg/mL

Now the same for `CCOC(=O)N1CCN(C(=O)CNC(=O)c2ccccc2F)CC1`
> 50.6 µg/mL

Now the same for CC(NC(=O)c1ccc(Br)s1)c1ccncc1 (stereo not drawn)
> 46.7 µg/mL

Now the same for `CS(=O)(=O)N(CC(=O)N1CCCCC1)Cc1ccccc1`
> 46.6 µg/mL

Now the same for `Cn1cnnc1SCC(=O)NC1CC1`
> 31.8 µg/mL

Now the same for CC(NC(=O)c1c(O)c2ccccc2[nH]c1=O)c1ccccc1 (stereo not drawn)
< 0.3 µg/mL

Now the same for CN1CCN(C(=O)OC2c3nccnc3C(=O)N2c2ccc(Cl)cn2)CC1 (stereo not drawn)
> 58.3 µg/mL

Now the same for `C=CCNC(=O)/C(=C\c1ccco1)NC(=O)c1ccco1`
> 42.9 µg/mL
